Data credit: paper PMC5011342

# System: expanded OPCs
# measurement-description: cells
# condition: alamarBlue viability of expanded OPCs, compound at 10 µM, relative to DMSO control
outcome-measure: 10 µM (% DMSO)
// units = % DMSO; emit number, no label

Previously resolved entries follow.
> print(dat)
                                   compound  readout.value
1  CCC1(c2ccc(N)cc2)CCC(=O)NC1=O (centres unmarked) [Aminoglutethimide]           84.0
2        OC(Cn1cncn1)(Cn1cncn1)c1ccc(F)cc1F           92.1
3  Nc1ncn([C@@H]2O[C@H](CO)[C@@H](O)[C@H]2O)c(=O)n1           57.5
4            O=C(O)c1cc(-c2ccc(F)cc2F)ccc1O           35.0

// switching to the query compound
Value of 10 µM (% DMSO) reported for the compound OCCN1CCN(CCCN2c3ccccc3Sc3ccc(Cl)cc32)CC1 [Perphenazine, reference compound] is 9.2
